// data source = the supplement of paper PMC10724198

system: Saccharomyces cerevisiae; experiment: protein stability index of tFT-peptide fusion (C-terminal peptide) (PSI (0-1 scale)); higher = more stable (slower turnover); conditions: genetic background: das1 deletion; temperature: 30 C;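 further: PSI is a weighted mean of sequencing reads over stability bins, variants kept only with over 10 reads, mCherry proximal and sfGFP distal, peptide attached via GGGS linker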
Each entry gets no if its protein stability index stays under 0.4, and yes if its protein stability index is 0.4 or above.

For orientation, consider the following solved cases.
Query: Does TFRVRRQKNRNM have a reported protein stability index of at least 0.4?
Reply: yes

Query: Same read-out for FLLASSRRICCS ?
Reply: no

Query: Same read-out for IDLVAFCTIFAL ?
Reply: no

Query: Same read-out for FRCPHAVKLVLV ?
Reply: no

Query: Same read-out for HRHCVSSYQKVS ?
Reply: yes

Next:
Query: Does LMVLISVMFSLG have a reported protein stability index of at least 0.4?
Reply: no

Query: Same read-out for LSVSEILAVKCG ?
Reply: yes
